Measurement Notes: Half life in Sprague-Dawley rat at 10 mg/kg, ip by LC-MS/MS analysis
Type: ADME, organism-based
Measurement Conditions: in vivo
Outcome Measure: half-life (h)

Molecule	Recorded Number
CCC(=O)N[C@H]1CC[C@@H](n2c(=O)cc(C)c3cnc(Nc4ccc(N5CCN(C(=O)CCCC#Cc6ccc7c(c6)CN(C6CCC(=O)NC6=O)C7=O)CC5)cc4OC)nc32)CC1 (some centres not stated)	4.3
CCC(=O)N[C@H]1CC[C@@H](n2c(=O)cc(C)c3cnc(Nc4ccc(N5CCN(C(=O)CCCCCC#Cc6ccc7c(c6)C(=O)N(C6CCC(=O)NC6=O)C7)CC5)cc4OC)nc32)CC1 (some centres not stated)	3.2

====

Target Or Test System: Protein cereblon/Dual specificity protein kinase TTK (Homo sapiens, UniProt P33981+Q96SW2)
Sequence (P33981 whole entry): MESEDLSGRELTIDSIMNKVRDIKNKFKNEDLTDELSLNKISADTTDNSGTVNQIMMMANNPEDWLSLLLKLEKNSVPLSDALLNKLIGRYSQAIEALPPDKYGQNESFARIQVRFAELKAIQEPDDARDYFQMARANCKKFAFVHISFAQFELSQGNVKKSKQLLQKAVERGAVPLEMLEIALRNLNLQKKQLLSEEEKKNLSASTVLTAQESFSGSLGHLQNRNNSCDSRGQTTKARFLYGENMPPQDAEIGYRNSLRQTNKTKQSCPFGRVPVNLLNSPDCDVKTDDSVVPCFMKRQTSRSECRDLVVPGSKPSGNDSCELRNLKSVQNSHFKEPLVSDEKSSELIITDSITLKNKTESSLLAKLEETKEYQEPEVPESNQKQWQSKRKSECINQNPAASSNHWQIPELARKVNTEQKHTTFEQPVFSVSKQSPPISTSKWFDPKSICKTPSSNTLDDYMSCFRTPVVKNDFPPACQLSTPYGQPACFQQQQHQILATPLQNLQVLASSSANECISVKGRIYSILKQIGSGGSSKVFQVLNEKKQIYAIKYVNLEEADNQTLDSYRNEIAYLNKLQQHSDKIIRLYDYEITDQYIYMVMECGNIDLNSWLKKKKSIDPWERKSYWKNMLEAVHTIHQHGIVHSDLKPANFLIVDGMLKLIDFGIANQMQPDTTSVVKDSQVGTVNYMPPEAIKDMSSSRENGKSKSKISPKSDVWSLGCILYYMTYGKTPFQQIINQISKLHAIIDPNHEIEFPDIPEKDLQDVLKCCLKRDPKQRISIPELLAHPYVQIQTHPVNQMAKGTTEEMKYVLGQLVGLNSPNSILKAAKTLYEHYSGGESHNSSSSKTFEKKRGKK
Sequence (Q96SW2 whole entry): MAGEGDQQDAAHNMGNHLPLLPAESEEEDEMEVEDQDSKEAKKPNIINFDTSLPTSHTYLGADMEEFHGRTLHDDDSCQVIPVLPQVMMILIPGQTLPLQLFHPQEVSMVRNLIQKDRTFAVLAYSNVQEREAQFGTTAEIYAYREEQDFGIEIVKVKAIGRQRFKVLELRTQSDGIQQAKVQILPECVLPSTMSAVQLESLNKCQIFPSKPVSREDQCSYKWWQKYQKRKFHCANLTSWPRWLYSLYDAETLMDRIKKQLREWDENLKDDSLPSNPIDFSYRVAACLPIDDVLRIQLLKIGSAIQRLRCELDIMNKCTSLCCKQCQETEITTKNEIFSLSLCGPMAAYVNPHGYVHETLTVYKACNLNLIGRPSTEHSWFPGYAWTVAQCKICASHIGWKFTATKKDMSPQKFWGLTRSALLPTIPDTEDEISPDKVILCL
Measurement Notes: Protac activity at CRBN/TTK in human HCT-116 cells assessed as degradation of TTK measured after 6 hrs by Western blotting analysis
Type: cell-based
Outcome Measure: DC50 (nM)

Sample records with DC50:
Compound	DC50 [nM]
CCC(=O)N[C@H]1CC[C@@H](n2c(=O)cc(C)c3cnc(Nc4ccc(N5CCN(C(=O)CCCCCCCCCC#Cc6cccc7c6CN(C6CCC(=O)NC6=O)C7=O)CC5)cc4OC)nc32)CC1 (stereo partly specified)	49.6
CCC(=O)N[C@H]1CC[C@@H](n2c(=O)cc(C)c3cnc(Nc4ccc(N5CCN(C(=O)CCCCCC#Cc6cccc7c6CN(C6CCC(=O)NC6=O)C7=O)CC5)cc4OC)nc32)CC1 (stereo partly specified)	20.3
CCC(=O)N[C@H]1CC[C@@H](n2c(=O)cc(C)c3cnc(Nc4ccc(N5CCN(C(=O)CCCCCC#Cc6ccc7c(c6)CN(C6CCC(=O)NC6=O)C7=O)CC5)cc4OC)nc32)CC1 (stereo partly specified)	35
CCC(=O)N[C@H]1CC[C@@H](n2c(=O)cc(C)c3cnc(Nc4ccc(N5CCN(C(=O)CCCCCCCCCC#Cc6ccc7c(c6)C(=O)N(C6CCC(=O)NC6=O)C7)CC5)cc4OC)nc32)CC1 (stereo partly specified)	74.5

A = CCC(=O)N[C@H]1CC[C@@H](n2c(=O)cc(C)c3cnc(Nc4ccc(N5CCN(C(=O)CCCCCCCC#Cc6ccc7c(c6)C(=O)N(C6CCC(=O)NC6=O)C7)CC5)cc4OC)nc32)CC1 (stereo partly specified)
B = CCC(=O)N[C@H]1CC[C@@H](n2c(=O)cc(C)c3cnc(Nc4ccc(N5CCN(C(=O)CCCC#Cc6ccc7c(c6)C(=O)N(C6CCC(=O)NC6=O)C7)CC5)cc4OC)nc32)CC1 (stereo partly specified)
C = CCC(=O)N[C@H]1CC[C@@H](n2c(=O)cc(C)c3cnc(Nc4ccc(N5CCN(C(=O)CCCCCCCC#Cc6ccc7c(c6)CN(C6CCC(=O)NC6=O)C7=O)CC5)cc4OC)nc32)CC1 (stereo partly specified)
D = CCC(=O)N[C@H]1CC[C@@H](n2c(=O)cc(C)c3cnc(Nc4ccc(N5CCN(C(=O)CCCCCCCC#Cc6cccc7c6CN(C6CCC(=O)NC6=O)C7=O)CC5)cc4OC)nc32)CC1 (stereo partly specified)
E = CCC(=O)N[C@H]1CC[C@@H](n2c(=O)cc(C)c3cnc(Nc4ccc(N5CCN(C(=O)CCCCCC#Cc6ccc7c(c6)C(=O)N(C6CCC(=O)NC6=O)C7)CC5)cc4OC)nc32)CC1 (stereo partly specified)
Task field, ranking: reported DC50, descending order. Submit the labels in the order that the ranking request calls for. C, A, D, B, E

====

Target Or Test System: Protein cereblon/Dual specificity protein kinase TTK (Homo sapiens, UniProt P33981+Q96SW2)
Measurement Notes: Protac activity at CRBN/TTK in human COLO 205 cells assessed as degradation of TTK measured after 6 hrs by Western blotting analysis
Assay type: cell-based
Outcome Measure: DC50 (nM)

Sample records with DC50:
Molecule	Unit String	Recorded Number
CCC(=O)N[C@H]1CC[C@@H](n2c(=O)cc(C)c3cnc(Nc4ccc(N5CCN(C(=O)CCCCCC#Cc6ccc7c(c6)C(=O)N(C6CCC(=O)NC6=O)C7)CC5)cc4OC)nc32)CC1 (stereo not given in full)	nM	3.1
CCC(=O)N[C@H]1CC[C@@H](n2c(=O)cc(C)c3cnc(Nc4ccc(N5CCN(C(=O)CCCC#Cc6cccc7c6C(=O)N(C6CCC(=O)NC6=O)C7)CC5)cc4OC)nc32)CC1 (stereo not given in full)	nM	30.3
CCC(=O)N[C@H]1CC[C@@H](n2c(=O)cc(C)c3cnc(Nc4ccc(N5CCN(C(=O)CCCC#Cc6cccc7c6CN(C6CCC(=O)NC6=O)C7=O)CC5)cc4OC)nc32)CC1 (stereo not given in full)	nM	599

a = CCC(=O)N[C@H]1CC[C@@H](n2c(=O)cc(C)c3cnc(Nc4ccc(N5CCN(C(=O)CCCCCCCC#Cc6cccc7c6C(=O)N(C6CCC(=O)NC6=O)C7)CC5)cc4OC)nc32)CC1 (stereo not given in full)
b = CCC(=O)N[C@H]1CC[C@@H](n2c(=O)cc(C)c3cnc(Nc4ccc(N5CCN(C(=O)CCCCCCCCCC#Cc6ccc7c(c6)C(=O)N(C6CCC(=O)NC6=O)C7)CC5)cc4OC)nc32)CC1 (stereo not given in full)
Consider a and b . Which of these has its DC50 at a higher number? Give the label of your selection. a
(a: 46 nM, b: 19.1 nM)
